Observed MIC, system Candida albicans ATCC 2002.
The reply should be a number in µM, with the unit left off.

# count of solved cases: 5
>  <SMILES STR>
CC[C@H](C)[C@H](N)C(=O)N[C@@H](CC(N)=O)C(=O)N[C@@H](Cc1c[nH]c2ccccc12)C(=O)N[C@@H](CCCCN)C(=O)NCC(=O)N[C@H](C(=O)N[C@@H](C)C(=O)N[C@@H](C)C(=O)N[C@@H](CCSC)C(=O)N[C@@H](C)C(=O)N[C@@H](CCCCN)C(=O)N[C@@H](CCCCN)C(=O)N[C@@H](CC(C)C)C(=O)N[C@@H](CC(C)C)C(N)=O)[C@@H](C)CC

>  <UNITS SYMBOL>
µM

>  <MIC>
2.38

$$$$
>  <SMILES STR>
CC[C@H](C)[C@H](NC(=O)[C@@H](NC(=O)[C@@H]1CCCN1C(=O)[C@H](CC(C)C)NC(=O)[C@@H](N)Cc1ccccc1)[C@@H](C)CC)C(=O)NCC(=O)N[C@@H](CCCCN)C(=O)N[C@@H](CC(C)C)C(=O)N[C@@H](CC(C)C)C(=O)N[C@@H](CO)C(=O)NCC(=O)N[C@@H](CC(C)C)C(=O)N[C@@H](CC(C)C)C(=O)O

>  <UNITS SYMBOL>
µM

>  <MIC>
7.23

$$$$
>  <SMILES STR>
CC[C@H](C)[C@H](NC(=O)[C@@H]1CCCN1C(=O)[C@H](CC(C)C)NC(=O)[C@@H](N)Cc1ccccc1)C(=O)N[C@H](C(=O)NCC(=O)N[C@@H](CCCCN)C(=O)N[C@@H](CC(C)C)C(=O)N[C@@H](CC(C)C)C(=O)N[C@@H](CO)C(=O)NCC(=O)N[C@@H](CC(C)C)C(=O)N[C@@H](CO)C(=O)NCC(=O)N[C@@H](CC(C)C)C(=O)N[C@@H](CC(C)C)C(N)=O)C(C)C

>  <UNITS SYMBOL>
µM

>  <MIC>
4

$$$$
>  <SMILES STR>
CC[C@H](C)[C@H](NC(=O)[C@@H]1CCCN1C(=O)[C@H](CC(C)C)NC(=O)[C@@H](N)Cc1ccccc1)C(=O)N[C@H](C(=O)NCC(=O)N[C@@H](CCCCN)C(=O)N[C@@H](CC(C)C)C(=O)N[C@@H](CC(C)C)C(=O)N[C@@H](CO)C(=O)NCC(=O)N[C@@H](CC(C)C)C(=O)N[C@@H](CO)C(=O)NCC(=O)N[C@@H](CC(C)C)C(=O)N[C@@H](CO)C(N)=O)C(C)C

>  <UNITS SYMBOL>
µM

>  <MIC>
1.56

$$$$
>  <SMILES STR>
CC[C@H](C)[C@H](NC(=O)[C@@H](NC(=O)[C@@H]1CCCN1C(=O)[C@H](CCSC)NC(=O)[C@@H](N)Cc1ccccc1)[C@@H](C)CC)C(=O)NCC(=O)N[C@@H](CCCN=C(N)N)C(=O)N[C@@H](CC(C)C)C(=O)N[C@@H](CCSC)C(=O)N[C@@H](CO)C(=O)NCC(=O)N[C@@H](CO)C(=O)N[C@@H](CC(C)C)C(=O)O

>  <UNITS SYMBOL>
µM

>  <MIC>
21.1

$$$$

Input line: Need MIC of CC[C@H](C)[C@@H]1NC(=O)[C@H](CO)NC(=O)[C@H](CCCCN)NC(=O)[C@H]([C@@H](C)O)NC(=O)[C@H](Cc2c[nH]c3ccccc23)NC(=O)[C@@H](NC(=O)CNC(=O)[C@H](CCCCN)NC(=O)[C@H](CC(C)C)NC(=O)[C@H](C)NC(=O)[C@H](C)N)CSSC[C@@H](C(=O)N[C@@H](Cc2ccccc2)C(=O)NCC(=O)N[C@@H](Cc2ccccc2)C(=O)O)NC(=O)[C@@H]2CCCN2C(=O)[C@H](CCCCN)NC(=O)[C@@H]2CCCN2C(=O)[C@@H]2CCCN2C1=O , thanks.
Output line: 2.32

---

tested on: Pseudomonas aeruginosa ATCC 27853; assay: ≥ marks a high value that may be exact or a test limit, other limits are often not marked, values filed in µg/mL are converted to µM
ENDPOINT NAME: MIC (µM)
The reply should be a number in µM, with the unit left off.

>  <SMILES STR>
C[C@H](NC(=O)[C@H](CCCN=C(N)N)NC(=O)[C@H](Cc1c[nH]c2ccccc12)NC(=O)[C@H](Cc1c[nH]c2ccccc12)NC(=O)[C@H](Cc1c[nH]c2ccccc12)NC(=O)[C@H](Cc1c[nH]c2ccccc12)NC(=O)[C@H](CCCN=C(N)N)NC(=O)[C@H](CCCN=C(N)N)NC(=O)CN)C(=O)N[C@@H](CCCN=C(N)N)C(N)=O

>  <ASSAYED TARGET>
Pseudomonas aeruginosa ATCC 27853

>  <UNITS SYMBOL>
µM

>  <MIC>
20.7

$$$$
>  <SMILES STR>
CC(C)C[C@H](NC(=O)[C@H](CCCN=C(N)N)NC(=O)CNC(=O)CNC(=O)[C@@H](N)CCCN=C(N)N)C(=O)N[C@@H](Cc1ccc(O)cc1)C(=O)N[C@@H](CCCN=C(N)N)C(=O)N[C@@H](CCCN=C(N)N)C(=O)N[C@@H](CCCN=C(N)N)C(=O)N[C@@H](Cc1ccccc1)C(=O)N[C@H](C(=O)N[C@H](C(=O)NCC(=O)N[C@@H](CCCN=C(N)N)C(N)=O)C(C)C)C(C)C

>  <ASSAYED TARGET>
Pseudomonas aeruginosa ATCC 27853

>  <UNITS SYMBOL>
µM

>  <MIC>
8

$$$$

Shifting focus to the molecule that follows.
Input line: Need MIC of CC[C@H](C)[C@H](NC(=O)[C@H](CCCCN)NC(=O)[C@@H](NC(=O)[C@H](Cc1ccccc1)NC(=O)[C@H](C)NC(=O)[C@H](CCCCN)NC(=O)CNC(=O)[C@H](Cc1ccccc1)NC(=O)[C@H](CCCCN)NC(=O)[C@H](CCCCN)NC(=O)[C@H](C)NC(=O)[C@H](CCCCN)NC(=O)[C@H](CCCCN)NC(=O)[C@H](CC(C)C)NC(=O)[C@@H](N)Cc1ccccc1)C(C)C)C(=O)N[C@@H](CC(C)C)C(=O)N[C@@H](CCCCN)C(N)=O , thanks.
Output line: 1

---

Observed MIC, system Staphylococcus aureus USA 300.
The reply should be a number in µM, with the unit left off.

>  <SMILES STR>
CC[C@H](C)[C@H](NC(=O)[C@H](CCCCN)NC(=O)[C@H](CCC(N)=O)NC(=O)[C@@H](NC(=O)[C@@H](NC(=O)[C@H](CCCN=C(N)N)NC(=O)[C@H](CCCCN)NC(=O)[C@H](Cc1ccccc1)NC(=O)CN)[C@@H](C)CC)C(C)C)C(=O)N[C@@H](CCCN=C(N)N)C(=O)N[C@@H](CC(=O)O)C(=O)N[C@@H](Cc1ccccc1)C(=O)N[C@@H](CC(C)C)C(=O)N[C@@H](CCCN=C(N)N)C(=O)N[C@@H](CC(N)=O)C(=O)N[C@@H](CC(C)C)C(=O)N[C@H](C(N)=O)C(C)C

>  <MIC / µM>
2.2

$$$$

Shifting focus to the molecule that follows.
Input line: Item: CC(C)C[C@H](NC(=O)[C@H](CC(C)C)NC(=O)[C@H](CCCCN)NC(=O)CNC(=O)[C@H](C)NC(=O)[C@H](C)NC(=O)[C@H](CCCCN)NC(=O)[C@H](CC(C)C)NC(=O)[C@H](C)NC(=O)[C@H](CO)NC(=O)[C@H](CC(C)C)NC(=O)[C@H](CC(C)C)NC(=O)CN)C(N)=O Test system: Staphylococcus aureus USA 300 Read-out: MIC Value: ?
Output line: 12.5

---

test system: Pseudomonas aeruginosa ATCC 27853; experiment: ≥ marks a high value that may be exact or a test limit, other limits are often not marked, values filed in µg/mL are converted to µM
ENDPOINT NAME: MIC (µM)
The reply should be a number in µM, with the unit left off.

# count of solved cases: 4
>  <COMPOUND>
CC[C@H](C)[C@H](NC(=O)[C@H](CCCN=C(N)N)NC(=O)[C@H](CCC(N)=O)NC(=O)[C@@H](NC(=O)[C@@H](NC(=O)[C@H](CCCN=C(N)N)NC(=O)[C@@H](N)CCCCN)[C@@H](C)CC)C(C)C)C(=O)N[C@@H](CCCCN)C(=O)N[C@@H](CC(=O)O)C(=O)N[C@@H](Cc1ccccc1)C(=O)N[C@@H](C)C(=O)N[C@@H](CCCN=C(N)N)C(=O)O [KRIVQRIKDFAR]

>  <ASSAYED TARGET>
Pseudomonas aeruginosa ATCC 27853

>  <UNITS SYMBOL>
µM

>  <MIC>
40

$$$$
>  <COMPOUND>
CC(C)C[C@H](NC(=O)[C@H](Cc1c[nH]c2ccccc12)NC(=O)[C@H](CCCCN)NC(=O)[C@H](CCCCN)NC(=O)[C@H](CC(C)C)NC(=O)[C@H](Cc1c[nH]c2ccccc12)NC(=O)[C@H](CCCCN)NC(=O)[C@H](CCCCN)NC(=O)[C@@H](N)CC(C)C)C(=O)N[C@@H](CCCCN)C(=O)N[C@@H](CCCCN)C(N)=O [LKKWLKKWLKK]

>  <ASSAYED TARGET>
Pseudomonas aeruginosa ATCC 27853

>  <UNITS SYMBOL>
µM

>  <MIC>
26.7

$$$$
>  <COMPOUND>
NCC(=O)NCC(=O)N[C@@H](Cc1cnc[nH]1)C(=O)NCC(=O)N[C@@H](Cc1c[nH]c2ccccc12)C(=O)N[C@@H](CCCN=C(N)N)C(=O)N[C@@H](Cc1c[nH]c2ccccc12)C(=O)N[C@@H](Cc1ccc(O)cc1)C(=O)N[C@@H](CS)C(=O)N[C@@H](CCCN=C(N)N)C(N)=O [GGHGWRWYCR]

>  <ASSAYED TARGET>
Pseudomonas aeruginosa ATCC 27853

>  <UNITS SYMBOL>
µM

>  <MIC>
25

$$$$
>  <COMPOUND>
CC(C)C[C@H](NC(=O)[C@H](CC(C)C)NC(=O)[C@H](CCCCN)NC(=O)[C@H](CCCCN)NC(=O)[C@H](CC(C)C)NC(=O)[C@H](Cc1cnc[nH]1)NC(=O)[C@H](CCCCN)NC(=O)[C@H](CC(C)C)NC(=O)[C@@H](N)Cc1ccccc1)C(N)=O [FLKHLKKLL]

>  <ASSAYED TARGET>
Pseudomonas aeruginosa ATCC 27853

>  <UNITS SYMBOL>
µM

>  <MIC>
7.02

$$$$

Input line: Need MIC of CC[C@H](C)[C@H](NC(=O)CN)C(=O)N[C@@H](CCSC)C(=O)N[C@@H](CO)C(=O)N[C@@H](CO)C(=O)N[C@@H](CC(C)C)C(=O)N[C@@H](CCSC)C(=O)N[C@@H](CCCCN)C(=O)N[C@@H](CCCCN)C(=O)N[C@@H](CC(C)C)C(=O)N[C@@H](C)C(=O)N[C@@H](CCCCN)C(=O)N[C@H](C(=O)N[C@H](C(=O)N[C@@H](C)C(=O)N[C@@H](CCCCN)C(N)=O)[C@@H](C)CC)[C@@H](C)CC [GIMSSLMKKLAKIIAK] , thanks.
Output line: 4.5

Input line: Proceed to CC[C@H](C)[C@@H]1NC(=O)[C@H](C)NC(=O)[C@@H](NC(=O)[C@H](Cc2ccccc2)NC(=O)[C@@H](NC(=O)[C@H](CCCCN)NC(=O)[C@@H]2CCCN2C(=O)[C@H](CC(C)C)NC(=O)[C@H](Cc2ccccc2)NC(=O)[C@H](CCCCN)NC(=O)[C@@H](N)CCCCN)[C@@H](C)CC)CSSC[C@@H](C(=O)O)NC(=O)[C@H](CCCCN)NC(=O)[C@H](CCCCN)NC(=O)[C@H]([C@@H](C)O)NC1=O [KKFLPKIFCAITKKC]
Output line: 256

Input line: Proceed to NC(=O)[C@H](Cc1ccccc1)NC(=O)[C@H](CCCN=C(N)N)NC(=O)[C@H](Cc1c[nH]c2ccccc12)NC(=O)[C@H](CCCN=C(N)N)NC(=O)[C@H](Cc1c[nH]c2ccccc12)NC(=O)[C@H](Cc1c[nH]c2ccccc12)NC(=O)[C@H](Cc1c[nH]c2ccccc12)NC(=O)[C@H](CCCN=C(N)N)NC(=O)[C@H](Cc1c[nH]c2ccccc12)NC(=O)[C@@H](N)CCCN=C(N)N [RWRWWWRWRF]
Output line: 16

Input line: Proceed to CC(C)C[C@H](NC(=O)[C@H](CCCNC(=N)N)NC(=O)CNC(=O)CNC(=O)[C@@H](N)CCCNC(=N)N)C(=O)N[C@@H](CS)C(=O)N[C@@H](Cc1ccc(O)cc1)C(=O)N[C@@H](CS)C(=O)N[C@@H](CCCNC(=N)N)C(=O)N[C@@H](CCCNC(=N)N)C(=O)N[C@@H](CCCNC(=N)N)C(=O)N[C@@H](Cc1ccccc1)C(=O)N[C@@H](CS)C(=O)N[C@H](C(=O)N[C@@H](CS)C(=O)N[C@H](C(=O)NCC(=O)N[C@@H](CCCNC(=N)N)C(N)=O)C(C)C)C(C)C [RGGRLCYCRRRFCVCVGR]
Output line: 16
